This collection of values is drawn from the supplement of paper PMC6331611.

# System: Salmonella enterica serovar Typhimurium SL1344
# measurement_notes: normalized intracellular growth (luminescence, IQM-normalized) in RAW264.7 macrophages (fraction of plate interquartile mean); higher = more bacterial growth (less inhibition)
# condition_details: 10 µM, time point: T3 (3 h)
In all, about 1,600 compounds were measured (“normalized intracellular growth (luminescence, IQM-normalized) in RAW264.7 macrophages”: median about 1, lowest 2% from about 0.43 on). Many of the other results were omitted from the sample, so the lowest values are more common in it than they were.
Measured normalized intracellular growth, listed per entry for reference.
In your answer, state the number alone without any accompanying words.

Examples from the recorded data:
>>> print(df.to_string())
                           substance_smiles                      result_type  numeric_readout
0                        FC(F)(Cl)C(F)(F)Cl  normalized intracellular growth             1.02
1  C[C@H]1c2cccc(O)c2C(=O)C2=C(O)[C@]3(O)C(=O)C(C(N)=O)=C(O)[C@@H](N(C)C)[C@@H]3[C@@H](O)[C@@H]21  normalized intracellular growth             0.73
2  CN(C)[C@@H]1C(O)=C(C(=O)NCN2CCCC2)C(=O)[C@@]2(O)C(O)=C3C(=O)c4c(O)cccc4[C@@](C)(O)[C@H]3C[C@@H]12  normalized intracellular growth            0.973
3                       FC(F)(F)COCC(F)(F)F  normalized intracellular growth            0.946

Now, please, on to the next compound.
Prompt line: Read the entry CN(C)c1cc(NC(=O)CNC(C)(C)C)c(O)c2c1C[C@H]1C[C@H]3[C@H](N(C)C)C(O)=C(C(N)=O)C(=O)[C@@]3(O)C(O)=C1C2=O and write its reported normalized intracellular growth.
Response line: 1.01
